- Tested on: nightshade (eastern black nightshade, Solanum ptycanthum)
- testDescription: Test C postemergence, plant response rating
- Type: in vivo
- testContext: 125 g ai/ha, scale 0 to 100 (0 no effect, 100 complete control)
measurementName: Nightshade plant response rating
Enter a number only.

Answered cases to consult:
Name the recorded Nightshade plant response rating of the item FC(F)(F)CCCCc1c(Br)cccc1Oc1ncc(Cl)cn1 [Compound 138] in your answer.
98

Name the recorded Nightshade plant response rating of the item CCCC(=O)c1c(Br)cccc1Oc1ncc(Cl)cn1 [Compound 75] in your answer.
98

Name the recorded Nightshade plant response rating of the item N#Cc1cccc(Oc2ncc(Cl)cn2)c1COCCC(F)(F)F [Compound 80] in your answer.
75

Name the recorded Nightshade plant response rating of the item CCCCC(=O)c1c(Br)cccc1Oc1ncc(Cl)cn1 [Compound 79] in your answer.
100

Next:
Name the recorded Nightshade plant response rating of the item O=C(CCC(F)(F)F)c1c(Cl)cccc1Oc1ncc(Cl)cn1 [Compound 107] in your answer.
100
